Molecular target: HLA-B*3501 (human)
Assay: competition with 125I-labeled standard peptide for purified HLA, gel filtration
# binding affinity ratio (IC50 of standard peptide / IC50 of test peptide) per record follows
Measured quantity: binding affinity ratio (IC50 of standard peptide / IC50 of test peptide)

> print(dat)
                                     binder  reported.value
1  EPPKLRSTAA (modifications not checked) [HPV16 E1 308 …]          0.0003
2     WPYLHNRLV (modifications not checked)          0.0003
3  DPQERPRKL (modifications not checked) [HPV16 E6 11 …]          0.0001
4    WPYLHNRLVV (modifications not checked)          0.0012
